assay-info: physchem
condition-summary: octanol/water, pH 1.5
Listed here: items and their measured logD.
Give a plain numeric answer without units written out.

Example compounds with recorded logD:
INSERT INTO results (smiles, value) VALUES
  ('CO[C@@H]1[C@@H](OC(N)=O)[C@@H](O)[C@H](Oc2ccc3c(O)c(NC(=O)c4cc(CC=C(C)C)c(O)c(CN5CCN(c6ncccn6)CC5)c4)c(=O)oc3c2C)OC1(C)C', -0.46),
  ('CO[C@@H]1[C@@H](OC(N)=O)[C@@H](O)[C@H](Oc2ccc3c(O)c(NC(=O)c4cc(CC=C(C)C)c(O)c(CN(C)C(=O)CN(C)C)c4)c(=O)oc3c2C)OC1(C)C', -1.18),
  ('CO[C@@H]1[C@@H](OC(N)=O)[C@@H](O)[C@H](Oc2ccc3c(O)c(NC(=O)c4cc(CC=C(C)C)c(O)c(CN(C)C(=O)CS(C)(=O)=O)c4)c(=O)oc3c2C)OC1(C)C', 1.29);

Please report the measured logD for CCN(CC)Cc1cc(C(=O)Nc2c(O)c3ccc(O[C@@H]4OC(C)(C)[C@H](OC)[C@@H](OC(N)=O)[C@H]4O)c(C)c3oc2=O)cc(CC=C(C)C)c1O 0.42

Retrieve logD measured for CO[C@@H]1[C@@H](OC(N)=O)[C@@H](O)[C@H](Oc2ccc3c(O)c(NC(=O)c4cc(CC=C(C)C)c(O)c(CN5CCCC5)c4)c(=O)oc3c2C)OC1(C)C and print it. 0.11

Supply measured logD of CO[C@@H]1[C@@H](OC(N)=O)[C@@H](O)[C@H](Oc2ccc3c(O)c(NC(=O)c4cc(CC=C(C)C)c(O)c(CN(C)C(=O)CNC(C)=O)c4)c(=O)oc3c2C)OC1(C)C in your reply. 1.33

Tell me logD reported for CO[C@@H]1[C@@H](OC(N)=O)[C@@H](O)[C@H](Oc2ccc3c(O)c(NC(=O)c4cc(CC=C(C)C)c(O)c(CN(C)C(=O)CCC(=O)O)c4)c(=O)oc3c2C)OC1(C)C 2.25

Check the records and state logD for CO[C@@H]1[C@@H](OC(N)=O)[C@@H](O)[C@H](Oc2ccc3c(O)c(NC(=O)c4cc(CC=C(C)C)c(O)c(CN(C)C(=O)[C@H](C)OC(C)=O)c4)c(=O)oc3c2C)OC1(C)C 2.62

Give the reported logD for this compound. CO[C@@H]1[C@@H](OC(N)=O)[C@@H](O)[C@H](Oc2ccc3c(O)c(NC(=O)c4cc(CC=C(C)C)c(O)c(CN(C)C(=O)CCCS(N)(=O)=O)c4)c(=O)oc3c2C)OC1(C)C 1.27

Specify reported logD for the compound shown: CO[C@@H]1[C@@H](OC(N)=O)[C@@H](O)[C@H](Oc2ccc3c(O)c(NC(=O)c4cc(CC=C(C)C)c(O)c(CN5CCN(CCCN(C)C)CC5)c4)c(=O)oc3c2C)OC1(C)C -4
